# target.or.system: UniProt P0DTD1
# experimental.protocol: SARS-CoV-2 Mpro enzymatic inhibition assay (fluorescence)
# Assay type: biochemical
recorded.endpoint: pIC50
Give bare numbers, as −log10 of the molar value.

Use these answered entries as a reference point.
{"smiles.input": "CC1(C)[C@@H]2[C@@H](C(=O)N[C@H](C=O)C[C@@H]3CCNC3=O)N(C(=O)c3cc4cccc(F)c4[nH]3)C[C@@H]21", "pIC50": 7.97}
{"smiles.input": "O=C[C@H](C[C@@H]1CCNC1=O)NC(=O)[C@@H]1CC2(CC2)CN1C(=O)c1cc2cccc(Cl)c2[nH]1", "pIC50": 8.01}
{"smiles.input": "CC1(C)[C@@H]2[C@@H](C(=O)N[C@H](C=O)C[C@@H]3CCNC3=O)N(C(=O)C3(c4cccc(Cl)c4)CC3)C[C@@H]21", "pIC50": 7.95}

Field: next molecule
Lab note: measured pIC50 of COc1cc2[nH]c(C(=O)N3C[C@H]4[C@@H]([C@H]3C(=O)N[C@H](C=O)C[C@@H]3CCNC3=O)C4(C)C)cc2cc1F was 7.25
